- ASSAY_NOTES: protein stability index of a GFP-peptide fusion (GPS, HEK-293T) (PSI 1-6); higher = more stable;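 note: 24-mer peptide tiles fused after GFP, lentivirally expressed, FACS-sorted into six equal bins by GFP/DsRed ratio, decoded by Illumina sequencing, PSI is the read-weighted mean bin number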
- CONDITION_DESCRIPTION: treatment: MLN4924 1 uM, 8 h; c terminus: a fixed tail appended
protein stability index values for the sequences below.
Write no unit; give the number alone.

Input line: Dear colleague, I am looking for the recorded protein stability index of the following sequence: GQFVFARDAKAAMAGRLMIRKLVA [AASDHPPT]
Output line: 2.02

Input line: Next up: QALGIPATECEFVGSLPVIVVGRL [LPCAT4]
Output line: 2.29

Input line: Next up: FLVLEQFLTILPEELQSWVRGHHP [ZNF232]
Output line: 2.5

Input line: Next up: TKVRKQEIIKVTEQLIEAISNGDF [CAMK2A]
Output line: 2.66

Input line: Next up: GMDDFLGVYSMPAGTKVFEVPEMS [TLE6]
Output line: 3.15

Input line: Next up: HEVKCQGKPLAGIYRKREEKRNAG [KMT5A]
Output line: 5.06

Input line: Next up: GFTPLHMAVDKDTTNVGRYPVGRF [FEM1A]
Output line: 3.6

Input line: Next up: AEHNLVLFRKDVDDATLSRLELER [PRPH]
Output line: 4.51

***
Input line: Dear colleague, I am looking for the recorded protein stability index of the following sequence: VYPRPPEPREFSSRNFGVRNQGNF [ZC2HC1C]
Output line: 3.24
